The measurements presented in this section are drawn from the domain aggregation screens of Martell et al. (2025).

Assay protocol: soluble fraction after stress (log2 fold change); higher = more stays soluble; pooled small domains, quantitative proteomics;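 also: 20 min heating vs room temperature control held 20 min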
Conditions: stress: 75 degC
# soluble fraction (log2) values compiled below

Ask: Given HMDRKFFFNEQYEDYINSDLKVKFMNDSGSKKSFQGELTKVTPSDLFLESEKESVKVPFSSIIQANLI , respond with its soluble fraction (log2).
Result: -0.197

Ask: Entry HMLPQYELIKQYLRHQIETGEWPIGYRTPSEPKLAEQFSVSRMTARRALQELADQGLLSRTAGSGTFVAKP needs its soluble fraction (log2) filled in; supply it.
Result: -0.921

Ask: For the sequence HMGGEAEVLQSIDEGREVEVRSVAADGSAEVIYRGARWRARAAVGSLAAGRWTIGRVDGTELVLEK , report soluble fraction (log2).
Result: -0.0609

Continuing:
Ask: Report soluble fraction (log2), nothing else, for this sequence: HMTRVANIPYSEFLKLVETDKINDVSMVGKTISGHLDDGTKFSTYTPPNDPNLIDKLSKHNVIIKAGPE
Result: -0.000643

Ask: Consider the sequence HMVDPAEASKRAREYLDALPADDLKDVIRQFSATLAEGSVVLGYFQRSGLKSKVVKTALEQFVASTILSK and give its recorded soluble fraction (log2).
Result: -1.16

Ask: Give the value of soluble fraction (log2) reported for the following: HMGPTGGLTPHIAIADKRASEAIEFYKQAFGAVEQVRMPAEDGVRLMHAHLLVNGSSLMMHDDFPEYSGQ
Result: 0.133

====

Assay protocol: soluble fraction after stress (log2 fold change); higher = more stays soluble; pooled small domains, quantitative proteomics
Conditions: stress: 75 degC
Measurement name: soluble fraction (log2)
Answer with the value's number alone.

For orientation, consider the following solved cases.
Ask: Give reported soluble fraction (log2) value for HMAMSDFDALSNRISTLSQGRASAVRMKDGIVSLVLDIGGLSAEERKAMTAAIEGEGRGYPSVTQVRILET
Result: -0.15

Ask: Specify soluble fraction (log2) for HMAGTKRAENIEIQKLTEVLEARLDSVGFFWPDHKAESMIMTLRNMISRLPLTEADVRVFHGIIKSLADK and stop.
Result: -0.486

Ask: For the sequence HMDVRLAKVYMLPANPYLRFIEFDDGTHGKFRAKPGKFGLGSVVKVKREDGDMYTLEGNYDGKDRL , give its measured soluble fraction (log2) value.
Result: -0.763

Ask: Note down soluble fraction (log2) recorded for HMYELREGDVVSVRILSQTGQNSYIASFAGGRFSVTSERAFAPGTVFSASVSLKDGTLVLSPL
Result: -3.6

---
Ask: Give the value of soluble fraction (log2) reported for the following: HMTRQRQLIYNIIQRADDHPTAEMIYARAKAEMPSIAFGTVYRNLKLMVDAGEILHIPVAGEPDRYDK
Result: -1.96

Ask: Please look at this sequence and report its soluble fraction (log2): HMNAKKSTLQLDLLKQLLEGNKISLKDFSLSNEISIRTAQRYIEDLLEIFEKNIVKEGDFYSFIS
Result: -3.4

Ask: Give soluble fraction (log2) for HMNPHIQFWSLLRRQPDYNSAYKDELKAMFVWQWSGEKTESLNEFYKTDPYRYKSMLMDMRNRAL
Result: -3.33

Ask: Could you please provide reported soluble fraction (log2) for HMIYSKSDLELFGIKKIDVMEENILMLILSEYELDQTPKNILIDEAVRLSKKFGADNAYKFVNATLDTLL ? Thanks!
Result: -1.15

Ask: Report measured soluble fraction (log2); entry is HMRQSSLRTRELLIDAARQLFARFGVEKTTMNDIAEASKRGRRTVYMYFNSKSDVFYAVVGRE
Result: -0.0881

Ask: For the sequence HMEAISIYPNPTDNELHLSTSVQEVRIYNMYGIEVTRAANTDRLAVSHLPKGVYLVHADGAVLKMIK , report soluble fraction (log2).
Result: -2.7

Ask: Consider the sequence HMNTDALIGKTGYVTEIVGERHGRIQFSGGEWSARTEGVSIPVGAEVRVDRIDGATAVVSAV . State its measured soluble fraction (log2).
Result: 0.114

Ask: Supply recorded soluble fraction (log2) for HMTGSALDATIEKLLDLGSKAGSVTEDEIQIVLKNVDVTDAQLSSIYQFLRDRGVEIVSATEDDD here.
Result: 0.371

Ask: # return recorded soluble fraction (log2) for input HMLTPQEIGSRLKLVRQGLQLKQQEVAEIIGTSQLKISKIEQGATVTTPDFLKLLAFYSQSVSLDILF
Result: -0.546

Ask: Please indicate soluble fraction (log2) recorded for HMSPPVIQQGQDVRLIYKGTGFAVSNEGKALNTAADGQVARARTGGGQTVSGIARPGGIIEIT
Result: 0.391

Ask: Using the record for HMRGAARRDRAVGERAVSKDTILDATRALLRKGSALEIRAIDIAEESGLSRQTVFQYYPVIRLIFFELSD , state its measured soluble fraction (log2).
Result: -0.00574

Ask: Please list soluble fraction (log2) recorded for the sequence HMDAPLIIAETRVDVPDATVSDAVMMLDLRNTNALLFKNSGSGVLNMVYRRGDGTIGWGEPQ
Result: -0.011

Ask: Report measured soluble fraction (log2); entry is HMGTGADKNSWTIGDKVKHRKWGTGTVVKVTGAGEDAELDIAFKSEGIKRLLAAFAPIEKVK
Result: -0.165

Ask: Look up and report measured soluble fraction (log2) for this entry: HMSDDSTIVELLASSLRRDIAFGTLLPDQKLKLNELRTRYGGSIHSMRETLRILSAEGLVEATAQRGFRVT
Result: 0.0731

Ask: Supply recorded soluble fraction (log2) for HMDRVSEITLTRLRDYAADGQVRTATLTHRTNVVTGTLRDGRRFSAGVPPMYGDELTTFLLDNGVRVDSDN here.
Result: -0.41

Ask: Return soluble fraction (log2) (reported value) for this sequence: HMGAQKITIPDFSNQEATQVYAELKNMGLEYTESRMNHPSIASGYVIKTEPTKGSEVKAGTTVTVYVSLG
Result: -0.112

Ask: Specify measured soluble fraction (log2) for HMSEVPAAVLVTGGSINLREAPSTDATIIDVAQVGEKMTVLAEKNSWYQVSRGGRNVWVASWVVDPLT .
Result: -0.066

Ask: Input HMATRLPFGFAKRFGVLVEGKDDQITVYHKDGLQTAVILEIQRYLARPFRFEAVTPEEFERRLGLAYQS , output reported soluble fraction (log2).
Result: -2.44

Ask: Identify measured soluble fraction (log2) corresponding to HMAVPFTIDVSQNGRYFIEEDNQVVEVSIGFLEDRFLRIIKSNPDIEVIIRGDAKASYESIAELLAVLQ
Result: -0.904

Ask: Provide soluble fraction (log2) value for the following sequence: HMTQFSASSERAGAGGAYRTTLRAMEQNGDLLQISILLPDAVTAKHAATVWPERAQAIYTAILSELLK
Result: -1.71
